Recorded kon values for a group of binders are listed next.
target: human CD33 S128N (human) (UniProt P20138); test: SPR, Fab captured, 37C
Sequence (P20138 18-259 S128N): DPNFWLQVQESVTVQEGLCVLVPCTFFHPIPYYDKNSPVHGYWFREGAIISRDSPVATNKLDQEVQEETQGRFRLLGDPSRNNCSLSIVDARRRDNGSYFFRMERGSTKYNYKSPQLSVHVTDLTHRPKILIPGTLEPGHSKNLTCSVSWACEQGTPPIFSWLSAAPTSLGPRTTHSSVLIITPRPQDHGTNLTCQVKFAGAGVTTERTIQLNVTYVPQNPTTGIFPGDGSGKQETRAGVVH
Reply with just the number (in M⁻¹ s⁻¹).

ADI-10161 Fab (Fab, V domains shown) VH: EVQLVESGGGLVQPGGSLRLSCAASGFTFSSYWMSWVRQAPGKGLEWVANINQDGSEKYYVDSVKGRFTISRDNAKNSLYLQMNSLRAEDTAVYYCAREGGDSWYHAFDIWGQGTMVTVSS VL: DIQMTQSPSSVSASVGDRVTITCRASQGISSWLAWYQQKPGKAPKLLIYAASNLQSGVPSRFSGSGSGTDFTLTISSLQPEDFATYYCQQKLSLPLTFGGGTKVEIK :: 605000
ADI-11839 Fab (Fab, V domains shown) VH: QVQLVQSGAEVKKPGASVKVSCKASGYTFSNYYMHWVRQAPGQGLEWMGWINPFSGGTRYAQKFQGRVTMTRDTSTSTVYMELSSLRSEDTAVYYCARDVGSSAYYYMDVWGKGTTVTVSS VL: DIQMTQSPSSVSASVGDRVTITCEASKGISSWLAWYQQKPGKAPKLLIYAASDLQSGVPSRFSGSGSGTDFTLTISSLQPEDFATYYCQQAFLFPPTFGGGTKVEIK :: 963000
ADI-11828 Fab (Fab, V domains shown) VH: EVQLVESGGGLVQPGGSLRLSCAASGFTFSSYWMSWVRQAPGKGLEWVANINQDGSEVYYVDSVKGRFTISRDNAKNSLYLQMNSLRAEDTAVYYCARDVGPGIAYQGHFDYWGQGTLVTVSS VL: DIQMTQSPSSLSASVGDRVTITCRASQSIYYYLNWYQQKPGKAPKLLIYAASSRQSGVPSRFSGSGSGTDFTLTISSLQPEDFATYYCQQVYDTPLTFGGGTKVEIK :: 1.37e+06

Lab note: next binder to report on.
In: Sample ADI-10157 Fab (Fab, V domains shown) VH: QVQLQESGPGLVKPSETLSLTCTVSGGSISSYYWSWIRQPPGKGLEWIGSIYYSGSTNYNPSLKSRVTISVDTSKNQFSLKLSSVTAADTAVYYCARVGGVYSTIETYGMDVWGQGTTVTVSS VL: EIVMTQSPATLSVSPGERATLSCRASQSVSSNLAWYQQKPGQAPRLLIYGASTRATGIPARFSGSGSGTEFTLTISSLQSEDFAVYYCQQYTVYPPTFGGGTKVEIK — what was its kon?
Out: 56500

Every entry's value here was drawn from patent US20220380459A1.
